IC50 values, listed per item
System: NCI-H226 cells
Experiment: Cell growth assay (CellTiter-Glo)
Type: cell-based, human
Settings: Homo sapiens, NCI-H226, 168 h, 7 days treatment, CellTiter-Glo luminescence, read-out: H226 CTG IC50

CC(C)NC(=O)[C@@H]1C[C@H]1c1cc(-c2ccc(C(F)(F)F)cc2)cc2c1cnn2C (racemic) [Example 27] :: 100 to 500 nM
Cn1cc2cc(Oc3ccc(C(F)(F)F)cc3)cc([C@@H]3C[C@H]3C(=O)N3CC[C@@H](O)[C@H](O)C3)c2n1 (single isomer, unassigned) [Example 75b] :: < 100 nM
CNS(=O)(=O)/C=C/c1cc(-c2ccc(C(F)(F)F)cc2)cc2c1cnn2C [Example 41] :: < 100 nM
Cn1ncc2c([C@@H]3C[C@H]3C(=O)NCCO)cc(-c3ccc(C(F)(F)F)cc3)cc21 (racemic) [Example 29] :: 500 to 1000 nM
Cn1cc2cc(Oc3ccc(C(F)(F)F)cc3)cc([C@@H]3C[C@H]3C(=O)N3CC(C#N)C3)c2n1 (single isomer, unassigned) [Example 70] :: < 100 nM
Cn1cc2cc(Oc3ccc(C(F)(F)F)cc3)cc([C@@H]3C[C@H]3C(=O)N3CC4CC3CC4O)c2n1 (single isomer, unassigned) [Example 103a] :: < 100 nM

The recorded IC50 for entry CC(NC(=O)[C@@H]1CC1c1cc(Oc2ccc(C(F)(F)F)cc2)cc2cn(C)nc12)c1ccccn1 (mixture of isomers) [Example 57] equals 100 to 500 nM

// IC50 lookup, compound = CC(C)NC(=O)[C@@H]1C[C@H]1c1cc(Oc2ccc(C(F)(F)F)cc2)cc2cn(C)nc12 (single isomer, unassigned) [Example 56a] , result: 500 to 1000 nM
